Biological target: Na^+,K^+-ATPase (Canis lupus familiaris, UniProt P50997)
Assay: Dog kidney Na+,K+-ATPase inhibition (hydrolysis of 32P-ATP)
Type: biochemical
Conditions: Na^+,K^+-ATPase Inhibition IC50
Counter-ions that a name gives are not always drawn.
reportedProperty: IC50 (nM)

>>> obsvalue("CC12CCC3C(CC(=O)NC4CC(=NOCCN)CCC43C)C1CCC2=O (stereo not shown) [I-bn]")
61000
>>> obsvalue("CC12CCC3C(NCCC4CC(=NOC5CCNC5)CCC43C)C1CCC2=O (stereo not shown) [I-ba]")
140
>>> obsvalue("CC12CCC3C(CC(=O)NC4CC(=NOC5CCNC5)CCC43C)C1CCC2=O (stereo not shown) [I-ad]")
950
>>> obsvalue("CNCCCON=C1CCC2(C)C(C1)OC(=O)CC1C3CCC(=O)C3(C)CCC12 (stereo not shown) [I-bq]")
3700
>>> obsvalue("CC12CCC3C(OC(=O)CC4CC(=NOC5CCNC5)CCC43C)C1CCC2=O (stereo not shown) [I-bk, hydrochloride]")
360
>>> obsvalue("CC12CCC3C(CCN(C=O)C4CC(=NOC5CCNC5)CCC34C)C1CCC2=O (stereo not shown) [I-ap, hydrochloride]")
35000
>>> obsvalue("CC12CCC3C(CC(=O)OC4CC(=NOC5CCNC5)CCC43C)C1CCC2=O (stereo not shown) [I-br]")
1300
>>> obsvalue("CC12CCC3C(COC(=O)C4CC(=NOCCN)CCC43C)C1CCC2=O (stereo not shown) [I-be, hydrochloride]")
1600
>>> obsvalue("CON=C1CC2C3CCC(=O)C3(C)CCC2C2(C)CCC(=NOC3CCNC3)CC2N1 (stereo not shown) [I-au, hydrochloride]")
68000
>>> obsvalue("CNCCCON=C1CCC2(C)C(C1)C(=O)OCC1C3CCC(=O)C3(C)CCC12 (stereo not shown) [I-bf, hydrochloride]")
1900
>>> obsvalue("CC12CCC3C(CCCC4CC(=NOCCN)CCC43C)C1CCC2=O (stereo not shown) [I-bo, hydrochloride]")
71
>>> obsvalue("CNCCCON=C1CCC2(C)C(CC(=O)OC3C4CCC(=O)C4(C)CCC32)C1 (stereo not shown) [I-bj, hydrochloride]")
2200
>>> obsvalue("CC12CCC3C(CC(=O)NC4CC(=NOCCN)CCC43C)C1CCC2=O (stereo not shown) [I-bm]")
25000
>>> obsvalue("CC12CCC3C(NC(=O)CC4CC(=NOC5CCNC5)CCC43C)C1CCC2=O (stereo not shown) [I-ax, hydrochloride]")
4800
>>> obsvalue("CC12CCC3C(CCNC4CC(=NOC5CCNC5)CCC43C)C1CCC2=O (stereo not shown) [I-am, dihydrochloride]")
9500
>>> obsvalue("CC12CCC3C(CC(=O)NC4CC(=NOCCN)CCC43C)C1CCC2=O (stereo not shown) [I-aa, hydrochloride]")
25000
>>> obsvalue("CC12CCC3C(C(=O)NC4CC(=NOC5CCNC5)CCC43C)C1CCC2=O (stereo not shown) [I-bv]")
1400
>>> obsvalue("CC12CCC3C(CCCC4CC(=NOC5CCNC5)CCC43C)C1CCC2=O (stereo not shown) [I-bp, hydrochloride]")
40
>>> obsvalue("CC12CCC3C(COC(=O)C4CC(=NOC5CCNC5)CCC43C)C1CCC2=O (stereo not shown) [I-bg, hydrochloride]")
810

====

System: anesthetized guinea-pig
Assay: Inotropic effect and lethal dose, slow intravenous infusion in anesthetized guinea-pig
Conditions: slow intravenous infusion over 90 minutes
Counter-ions that a name gives are not always drawn.
reportedProperty: Dead/treated

>>> obsvalue("CC12CCC3C(OC(=O)CC4CC(=NOC5CCNC5)CCC43C)C1CCC2=O (stereo not shown) [I-bk, hydrochloride]")
"0/3"
>>> obsvalue("C[C@H]1O[C@@H](O[C@H]2[C@@H](O)C[C@H](O[C@H]3[C@@H](O)C[C@H](O[C@H]4CC[C@@]5(C)[C@H](CC[C@@H]6[C@@H]5C[C@@H](O)[C@]5(C)[C@@H](C7=CC(=O)OC7)CC[C@]65O)C4)O[C@@H]3C)O[C@@H]2C)C[C@H](O)[C@@H]1O [digoxin, reference compound]")
"10/10"
>>> obsvalue("CC12CCC3C(NCCC4CC(=NOC5CCNC5)CCC43C)C1CCC2=O (stereo not shown)")
"0/3"
>>> obsvalue("C[C@]12CCC(=NOCCN)CC1C(=O)C[C@@H]1[C@@H]2CC[C@]2(C)C(=O)CC[C@@H]12.Cl (mixture of isomers) [Compd. 22b, reference compound]")
"7/8"
